B1: Azoarcus group I ribozyme (parent)
chain: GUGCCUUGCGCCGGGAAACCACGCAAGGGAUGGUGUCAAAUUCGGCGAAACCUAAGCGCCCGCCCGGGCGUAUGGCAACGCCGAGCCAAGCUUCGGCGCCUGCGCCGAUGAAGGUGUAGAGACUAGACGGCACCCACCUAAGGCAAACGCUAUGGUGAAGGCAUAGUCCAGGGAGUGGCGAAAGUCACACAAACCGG

- Variants of: B1
- assay.name: reverse-splicing fitness (ratio to wild type); higher = more active; in vitro selection; Mg2+ level not given
Task for the reader: assign each of the following variants its reported reverse-splicing fitness.

C82U A111C A145C C150A C169G    0.00773
A120G C169A U176C    0.189
C82G A111G A120U A145C C150U C169G    0.00281
C82U A111C A120C C150G C169A U176A    0.00943
A120C A145C C150A C169G U176G    0.00492

Hi, could you look up reverse-splicing fitness for each item in my list?
1. C82U A111G A145C C169A U176C
2. C82A A111C A120U A145C C169U U176C
3. C82G A111G A120C C150U C169U U176C

Response line:
1: 0.00406; 2: 0.00326; 3: 0.017
